meta.source: ChEMBL document CHEMBL5223128

Target desc: Programmed cell death protein 1/Programmed cell death 1 ligand 1 (Homo sapiens, UniProt Q9NZQ7)
Sequence (Q15116 whole entry): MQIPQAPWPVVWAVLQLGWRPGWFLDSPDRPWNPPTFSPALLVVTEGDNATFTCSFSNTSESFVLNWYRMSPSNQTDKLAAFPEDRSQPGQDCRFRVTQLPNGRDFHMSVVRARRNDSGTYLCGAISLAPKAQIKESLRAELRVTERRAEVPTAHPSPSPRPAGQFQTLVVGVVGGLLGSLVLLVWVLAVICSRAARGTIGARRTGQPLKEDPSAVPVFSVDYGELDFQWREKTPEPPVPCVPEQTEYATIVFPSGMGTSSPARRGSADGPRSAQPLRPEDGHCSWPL
Sequence (Q9NZQ7 whole entry): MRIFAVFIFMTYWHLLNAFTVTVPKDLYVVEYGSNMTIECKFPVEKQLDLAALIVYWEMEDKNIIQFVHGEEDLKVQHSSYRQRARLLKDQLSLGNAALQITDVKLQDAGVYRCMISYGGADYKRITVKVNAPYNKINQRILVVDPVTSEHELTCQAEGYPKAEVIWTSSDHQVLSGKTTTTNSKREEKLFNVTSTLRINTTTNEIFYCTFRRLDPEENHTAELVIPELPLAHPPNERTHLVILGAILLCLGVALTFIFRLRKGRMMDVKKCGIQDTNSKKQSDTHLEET
Run description: Inhibition of human PD-1/PDL1 protein-protein interaction by HTRF assay
Format: protein-complex assay
Measured attribute: IC50

Previously resolved entries follow.
{"Compound": "Cc1c(-c2ccccc2)ccnc1-c1nc2c(s1)CNCC2", "IC50": "≤ 100 nM"}
{"Compound": "N#Cc1c(-c2ccc3c(c2)OCCO3)cccc1-c1nc2c(Cl)cc(CNCCO)cn2n1", "IC50": "≤ 100 nM"}
{"Compound": "N#Cc1c(NC(=O)c2nc3c(s2)CNCC3)cccc1-c1ccc2c(c1)OCC2", "IC50": "≤ 100 nM"}
{"Compound": "Cc1c(NC(=O)c2nc3c(s2)CNCC3)cc(F)cc1-c1ccc2c(c1)OCCO2", "IC50": "≤ 100 nM"}
{"Compound": "Cc1c(-c2ccccc2)cccc1-c1nc2cc(CNCCO)c(OCC#N)cc2o1", "IC50": "≤ 10 nM"}
{"Compound": "Cc1c(C2=CCCCC2)cccc1-c1nc2c(s1)CNCC2", "IC50": "≤ 100 nM"}

Request: Can you look up the measured IC50 of `Cc1c(-c2ccccc2)cccc1-c1nc2cc(CNCCO)nc(C)n2n1` for me?
Result: ≤ 100 nM

Request: Could you share which IC50 value was measured for Cc1c(Nc2nccc3c(CN4CCCCC4C(=O)O)ccnc23)cccc1-c1ccccc1 (centres undefined) ?
Result: ≤ 10 nM

Request: IC50 lookup needed for `COc1c(CNCCO)cnc2c(Nc3cccc(-c4ccccc4)c3C)nccc12` , thanks.
Result: ≤ 10 nM

Request: Returns the measured IC50 for the input compound. Input: `Cc1c(-c2ccccc2)cccc1-c1nc2c(s1)CN(C)CC2`
Result: ≤ 100 nM

Request: Using the record for `Cc1c(-c2ccccc2)cccc1-c1cn2cc(CNCCO)ncc2n1` , report its IC50.
Result: ≤ 100 nM

Request: If you can, please state the reported IC50 value of `N#CCc1cc(CNCCO)cn2nc(-c3cccc(-c4ccc5c(c4)OCCO5)c3C#N)nc12` .
Result: ≤ 100 nM

Request: Quick check: IC50 of `N#Cc1c(-c2ccc3c(c2)OCCO3)cccc1-c1nc2c(s1)CNCC2` ?
Result: ≤ 100 nM

Request: Please look up its IC50: `Cc1c(-c2ccccc2)cccc1-c1nc2ccc(CNCCO)cn2n1`
Result: ≤ 100 nM

Request: I'd like to know its IC50. The compound in question is `Cc1c(-c2ccccc2)cccc1-c1nc2cc(CN3CCCC[C@H]3C(=O)O)c(OCCCC#N)cc2o1`
Result: ≤ 10 nM

Request: Any idea what IC50 was measured for `Cc1c(-c2ccccc2)cccc1-c1nc2cc(CNCCO)c(OCc3ccccn3)cc2o1` ?
Result: ≤ 10 nM

Request: Endpoint output: IC50 of `Cc1c(-c2ccc3c(c2)OCCO3)ccnc1-c1nc2c(s1)CNCC2` . Value?
Result: ≤ 100 nM

Request: # IC50 lookup, item `Cc1cc(CNCCO)cc2nc(-c3cccc(-c4ccccc4)c3C#N)oc12`
Result: ≤ 10 nM

Request: // returns reported IC50 for input `CCOc1cccc(-c2cccc(-c3nc4c(s3)CNCC4)c2C)c1`
Result: ≤ 100 nM

====

Target desc: Programmed cell death protein 1/Programmed cell death 1 ligand 1 (Homo sapiens)
Run description: Inhibition of human PD-1/PDL1 protein-protein interaction by HTRF assay
Format: protein-complex assay
Recorded IC50, one value per entry.

Examples from the recorded data:
{"Compound": "N#Cc1c(NC(=O)c2ccc(CNCCO)cn2)cccc1-c1ccccc1", "Result": "≤ 10 nM"}
{"Compound": "Cc1c(-c2ccccc2)cccc1-c1nc2cc(CNCCO)cc(C)c2o1", "Result": "≤ 10 nM"}
{"Compound": "Cc1c(-c2nc3c(s2)CNCC3)cccc1-c1cccc2c1cnn2C", "Result": "≤ 100 nM"}
{"Compound": "Cc1c(NC(=O)c2nc3c(s2)CNCC3)cccc1-c1ccc2c(c1)OCCO2", "Result": "≤ 100 nM"}
{"Compound": "COc1cccc(-c2cccc(NC(=O)c3nc4c(s3)CNCC4)c2C#N)c1", "Result": "≤ 100 nM"}

Request: If you can, please state the reported IC50 value of `Cc1c(Nc2nccc3cc(CNCCO)cnc23)cccc1-c1ccccc1` .
Result: ≤ 10 nM

Request: Would you mind telling me what IC50 value was observed for `Cc1c(Nc2nccc3cc(CNCCO)cnc23)cccc1-c1ccc2c(c1)OCCO2` ?
Result: ≤ 10 nM

Request: Fill blank: measured IC50 of the compound `Cc1c(-c2ccccc2)cccc1-c1nc2cc(CNCCO)ccn2n1` is ____.
Result: ≤ 100 nM

Request: Form field: reported IC50 of Cc1c(-c2ccccc2)ccnc1-c1nc2c(s1)CN(C1CCC(C(=O)O)CC1)CC2 (stereo unspecified)
Result: ≤ 100 nM

Request: GET /values?readout=IC50&item= `COc1cccc(-c2cccc(NC(=O)c3cn4c(n3)CNCC4)c2C#N)c1F`
Result: ≤ 100 nM

====

Target desc: Programmed cell death protein 1/Programmed cell death 1 ligand 1 (Homo sapiens, UniProt Q9NZQ7)
Run description: Inhibition of human PD-1/PDL1 protein-protein interaction by luminescence proximity homogeneous assay
Assay type: protein-complex assay
Measured attribute: pIC50
// pIC50: -log10(molar conc.)

Request: Bench note: what pIC50 did Cc1c(COc2cc(OCc3ccc(OC(F)(F)F)cc3)c(N3CCCCC3C(=O)O)cc2Cl)cccc1-c1ccccc1 (stereo unspecified) show?
Result: 5.82

====

Target desc: Programmed cell death protein 1/Programmed cell death 1 ligand 1 (Homo sapiens)
Run description: Inhibition of human PD-1/PDL1 protein-protein interaction
Format: protein-complex assay
Measured attribute: IC50 (nM)
Could you give me the number in nM? Just the number is fine.

Request: Could you share which IC50 value was measured for COc1cc(OCc2cccc(-c3ccccc3)c2C)cc(OC)c1CCCC1CC(=O)N1 (stereo unspecified) ?
Result: 18

====

Target desc: Programmed cell death protein 1/Programmed cell death 1 ligand 1 (Homo sapiens, UniProt Q9NZQ7)
Run description: Inhibition of human PD-1/PDL1 protein-protein interaction by HTRF assay
Format: protein-complex assay
Measured attribute: IC50

Solved entries (count: 3):
{"Record smiles": "Cn1cnc2c(-c3cccc(NC(=O)c4ccc(CNCCO)cn4)c3C#N)cccc21", "Measured attribute": "IC50", "Result": "≤ 10 nM"}
{"Record smiles": "N#Cc1c(NC(=O)c2nc3c(s2)CNCC3)cccc1-c1ccccc1", "Measured attribute": "IC50", "Result": "≤ 100 nM"}
{"Record smiles": "N#Cc1c(Nc2nccc3cc(CNCCO)cnc23)cccc1-c1ccc2c(c1)OCCO2", "Measured attribute": "IC50", "Result": "≤ 10 nM"}

Request: If you can, please state the reported IC50 value of `COc1cc(F)cc(-c2cccc(NC(=O)c3nc4c(s3)CNCC4)c2C#N)c1` .
Result: ≤ 100 nM

Request: Bench note: what IC50 did `Cc1c(NC(=O)c2nc3c(s2)CNCC3)cccc1-c1cccc2c1cnn2C` show?
Result: ≤ 100 nM

====

Target desc: Programmed cell death protein 1 (Homo sapiens)
Sequence (Q15116 whole entry): as the sequence (Q15116 whole entry) above
Measured attribute: Kd
Quick note: number first, unit second.

Request: Form field: Kd recorded for `O=C(O)[C@@H](CO)NCc1cc(Cl)c(OCc2cccc(-c3ccccc3)c2Br)cc1OCc1ccc2nonc2c1` with Programmed cell death protein 1 (Homo sapiens) (enter value)
Result: 3.34 nM

====

Target desc: Programmed cell death protein 1/Programmed cell death 1 ligand 1 (Homo sapiens)
Run description: Inhibition of human PD-1/PDL1 protein-protein interaction by HTRF assay
Type: protein-complex assay
pIC50: −log10 of the molar value.
Documented pIC50 across a set of compounds

# count of solved cases: 3
{"Compound": "N#Cc1c(NC(=O)c2nc3c(s2)CNCC3)cccc1C1=CCCCC1", "pIC50": "≥ 7.00"}
{"Compound": "Cc1c(Nc2nccc3c(CNCCO)ccnc23)cccc1-c1ccc2c(c1)OCCO2", "pIC50": "≥ 8.00"}
{"Compound": "Cc1c(-c2ccccc2)cccc1-c1nc2c(s1)CN(CCO)CC2", "pIC50": "≥ 7.00"}

Request: Can you look up the measured pIC50 of `Cc1c(-c2nc3cc(CNCCO)c(OCC#N)cc3o2)cccc1-c1ccccc1F` for me?
Result: ≥ 8.00

Request: Entry Cc1c(COc2cc(OCc3ccc(OC(F)(F)F)cc3)c(N3CCCCC3C(=O)O)cc2Cl)cccc1-c1ccccc1 (stereo unspecified) has what pIC50?
Result: 7.25

Request: Which value of pIC50 has been reported for `N#Cc1c(Nc2nccc3cc(CNCCO)cnc23)cccc1-c1ccccc1` in the records?
Result: ≥ 8.00

Request: I am curious: what pIC50 value has been reported for `Cc1c(-c2ccc3c(c2)OCCO3)cccc1-c1nc2cc(CN3CCCC[C@H]3C(=O)O)c(OCC#N)cc2o1` ?
Result: ≥ 8.00

Request: If you can, please state the reported pIC50 value of `Cc1c(-c2ccccc2)cccc1-c1nc2cc(CNCCO)ccc2o1` .
Result: ≥ 8.00

Request: Reported pIC50 for `N#Cc1c(-c2ccc3c(c2)OCCO3)cccc1-c1nc2c(C#N)cc(CNCCO)cn2n1` : what is it?
Result: ≥ 7.00

Request: Field request: pIC50 | item: `Cc1c(-c2ccccc2)cccc1-c1nc2cc(CN3CCCC[C@H]3C(=O)O)c(OCC#N)cc2o1`
Result: ≥ 8.00

Request: Which value of pIC50 has been reported for `Cc1c(-c2ccccc2)cccc1-c1nc2c(s1)CNCC2` in the records?
Result: ≥ 7.00
